Data provenance is patent US20040266723A1.

test: Cytotoxicity in HepG2 cells; type: cell-based; conditions: human, HepG2 cells
ASSAY_ENDPOINT: CC50 at 3 days (µM)
Give the quantity in µM, number only.

# input Return reported CC50 at 3 days; argument: NC(=O)c1cccc(C2OC(CO)C(O)C2O)c1 (stereo not shown) [Benzamide Riboside]
# output 8

----------
Kindly supply the reported EC90 values for the records listed here.
Test system: BVDV
Assay: BVDV real time RT-PCR antiviral assay in MDBK cells
Assay type: cell-based, Bovine viral diarrhea virus (BVDV), strain NADL
Conditions: Bovine viral diarrhea virus isolates and strains, MDBK, 22 h
Description: As one illustration of this method, in the case of BVDV in MDBK cells, in a first step, viral RNA is isolated from 140 μL of the cell culture supernatant by means of a commercially available column (Viral RNA extraction kit, QiaGen, CA). The viral RNA is then eluted from the column to yield a total volume of 60 μL, and subsequently amplified with a quantitative RT-PCR protocol using a suitable primer for the BVDV NADL strain. […]
Give the quantity in µM, number only.

# input Return reported EC90; argument: NC(=O)c1ncn([C@@H]2O[C@H](CO)[C@@H](O)[C@H]2O)n1 [Ribavirin]
# output 5

# input Return reported EC90; argument: NC(=O)c1cccc(C2OC(CO)C(O)C2O)c1 (stereo not shown) [Benzamide Riboside]
# output 3

# input Return reported EC90; argument: NC(=O)c1csc([C@@H]2O[C@H](CO)[C@@H](O)[C@H]2O)n1 [Tiazofurin]
# output 30

# input Return reported EC90; argument: COc1c(C)c2c(c(O)c1C/C=C(\C)CCC(=O)O)C(=O)OC2 [Mycophenolic Acid (MPA), Mycophenolic Acid]
# output 1

----------
experiment: in vitro; assay type: cell-based; conditions: 7 days; read-out: PBMC 7 days CC50
ASSAY_ENDPOINT: CC50 at 7 days (µM)
Give the quantity in µM, number only.

# input Return reported CC50 at 7 days; argument: NC(=O)c1csc([C@@H]2O[C@H](CO)[C@@H](O)[C@H]2O)n1 [Tiazofurin]
# output 79.5

# input Return reported CC50 at 7 days; argument: COc1c(C)c2c(c(O)c1CCOP(=O)(O)CP(=O)(O)OC[C@H]1O[C@@H](n3cnc4c(N)ncnc43)C(O)[C@H]1O)C(=O)OC2 (stereo partly drawn) [C2-MAD]
# output 45.9

----------
assay: Cytotoxicity in Vero cells; assay type: cell-based; conditions: African green monkey
ASSAY_ENDPOINT: CC50 at 3 days

# input Return reported CC50 at 3 days; argument: NC(=O)c1ncn([C@@H]2O[C@H](CO)[C@@H](O)[C@H]2O)n1
# output > 100 µM

----------
test: Cytotoxicity in MDBK cells; type: cell-based; conditions: Table 2; 3 days
ASSAY_ENDPOINT: CC50 at 3 days (µM)
Give the quantity in µM, number only.

# input Return reported CC50 at 3 days; argument: COc1c(C)c2c(c(O)c1CCOP(=O)(O)CP(=O)(O)OC[C@H]1O[C@@H](n3cnc4c(N)ncnc43)C(O)[C@H]1O)C(=O)OC2 (stereo partly shown) [C2-MAD]
# output 9

# input Return reported CC50 at 3 days; argument: NC(=O)c1ncn([C@@H]2O[C@H](CO)[C@@H](O)[C@H]2O)n1 [Ribavirin]
# output 5

# input Return reported CC50 at 3 days; argument: NC(=O)c1csc([C@@H]2O[C@H](CO)[C@@H](O)[C@H]2O)n1 [Tiazofurin]
# output 25

----------
tested on: MDBK cells; assay: Cytotoxicity in MDBK cells; assay type: cell-based; conditions: Table 1; 3 days; read-out: MDBK 3 days CC50
ASSAY_ENDPOINT: CC50

# input Return reported CC50; argument: COc1c(C)c2c(c(O)c1CCO)C(=O)OC2
# output 7 µM

----------
Experiment: Cytotoxicity in MDBK cells
Format: cell-based
Conditions: bovine, MDBK cells, Table 1; 3 days
Excerpt: Cytotoxicity testing can be carried out according to standard methods. MDBK, PBM, HepG2, Huh7 and Vero cells were used. […]. […] Afterwards the plates containing the dye are read at 490 nm. Each assay was done in triplicate. Such methodologies are well described and available from the manufacturer (Promega).
Kindly supply the reported CC50 at 3 days values for the records listed here.
Give the quantity in µM, number only.

# input Return reported CC50 at 3 days; argument: NC(=O)c1csc(C2OC(COP(=O)(O)CP(=O)(O)OCC3OC(n4cnc5c(N)ncnc54)C(O)C3O)C(O)C2O)n1 (stereo not drawn)
# output 70

# input Return reported CC50 at 3 days; argument: NC(=O)c1cccc(C2OC(CO)C(O)C2O)c1 (stereo not drawn) [Benzamide Riboside]
# output 4

# input Return reported CC50 at 3 days; argument: COc1c(C)c2c(c(O)c1C/C=C(\C)CCC(=O)O)C(=O)OC2
# output 2

----------
assay: Cytotoxicity in MDBK cells; assay type: cell-based; details: bovine, MDBK cells, 24 hrs
Kindly supply the reported CC50 at 24 h values for the records listed here.

# input Return reported CC50 at 24 h; argument: NC(=O)c1cccc(C2OC(CO)C(O)C2O)c1 (stereo not drawn) [Benzamide Riboside]
# output 13 µM

# input Return reported CC50 at 24 h; argument: NC(=O)c1csc(C2OC(COP(=O)(O)CP(=O)(O)OCC3OC(n4cnc5c(N)ncnc54)C(O)C3O)C(O)C2O)n1 (stereo not drawn) [β-CH2-TAD]
# output > 100 µM

# input Return reported CC50 at 24 h; argument: COc1c(C)c2c(c(O)c1C/C=C(\C)CCC(=O)O)C(=O)OC2 [Mycophenolic Acid (MPA), Mycophenolic Acid]
# output > 100 µM

----------
tested on: MDBK cells; experiment: Cytotoxicity in MDBK cells; type: cell-based
Kindly supply the reported CC50 values for the records listed here.

# input Return reported CC50; argument: COc1c(C)c2c(c(O)c1C/C=C(\C)C=O)C(=O)OC2
# output > 100 µM

# input Return reported CC50; argument: COc1c(C)c2c(c(O)c1CC=O)C(=O)OC2
# output > 100 µM

# input Return reported CC50; argument: COc1c(C)c2c(c(O)c1C/C=C(\C)CCCOP(=O)(O)CP(=O)(O)OC[C@H]1O[C@@H](n3cnc4c(N)ncnc43)[C@H](O)[C@@H]1O)C(=O)OC2
# output > 100 µM

----------
Kindly supply the reported Ki values for the records listed here.
target: human IMPDH; experiment: IMPDH inhibition (Ki); format: biochemical; settings: Table 2; read-out: IMPDH Ki
Give the quantity in µM, number only.

# input Return reported Ki; argument: NC(=O)c1csc(C2OC(COP(=O)(O)CP(=O)(O)OCC3OC(n4cnc5c(N)ncnc54)C(O)C3O)C(O)C2O)n1 (stereo not drawn) [β-CH2-TAD]
# output 0.11

# input Return reported Ki; argument: NC(=O)c1ncn([C@@H]2O[C@H](CO)[C@@H](O)[C@H]2O)n1 [Ribavirin]
# output 0.2

# input Return reported Ki; argument: NC(=O)c1cccc(C2OC(CO)C(O)C2O)c1 (stereo not shown) [Benzamide Riboside]
# output 0.66

# input Return reported Ki; argument: NC(=O)c1cccc([C@@H]2O[C@H](COP(=O)(O)CP(=O)(O)OCC3OC(n4cnc5c(N)ncnc54)C(F)C3O)[C@@H](O)[C@H]2O)c1 (stereo partly shown) [F-ara-CH2-BAD]
# output 175

# input Return reported Ki; argument: COc1c(C)c2c(c(O)c1C/C=C(\C)CCCOP(=O)(O)CP(=O)(O)OC[C@H]1O[C@@H](n3cnc4c(N)ncnc43)[C@H](O)[C@@H]1O)C(=O)OC2 [C6-MAD]
# output 0.3

# input Return reported Ki; argument: NC(=O)c1csc([C@@H]2O[C@H](CO)[C@@H](O)[C@H]2O)n1 [Tiazofurin]
# output 0.11

# input Return reported Ki; argument: COC(=O)CC/C(C)=C/Cc1c(O)c2c(c(C)c1OC)COC2=O [MPA-O-Me]
# output 0.5

----------
Kindly supply the reported CC50 at 3 days values for the records listed here.
assay: Cytotoxicity in MDBK cells; format: cell-based; conditions: Table 1; 3 days
Give the quantity in µM, number only.

# input Return reported CC50 at 3 days; argument: NC(=O)c1ncn([C@@H]2O[C@H](CO)[C@@H](O)[C@H]2O)n1
# output 4

# input Return reported CC50 at 3 days; argument: NC(=O)c1csc([C@@H]2O[C@H](CO)[C@@H](O)[C@H]2O)n1
# output 25

# input Return reported CC50 at 3 days; argument: COc1c(C)c2c(c(O)c1CCOP(=O)(O)CP(=O)(O)OC[C@H]1O[C@@H](n3cnc4c(N)ncnc43)C(O)[C@H]1O)C(=O)OC2 (stereo partly drawn)
# output 50

----------
tested on: CEM; assay: Cytotoxicity in CEM cells; conditions: read-out: CEM 7 days CC50; 7 days
ASSAY_ENDPOINT: CC50 (µM)
Give the quantity in µM, number only.

# input Return reported CC50; argument: COc1c(C)c2c(c(O)c1CCO)C(=O)OC2 [C2-MPAlcohol]
# output 91
